- Target: T1, human IL-36R extracellular domain expressed with a C-terminal myc-myc-hexahistidine tag (hIL-36R-MMH) (human, UniProt Q9HB29 20-337)
- T1 construct: also called Human IL-36R-MMH; REGN2105
- T1 sequence (Q9HB29 other isoform, or with tags, fused parts or gaps limits assumed): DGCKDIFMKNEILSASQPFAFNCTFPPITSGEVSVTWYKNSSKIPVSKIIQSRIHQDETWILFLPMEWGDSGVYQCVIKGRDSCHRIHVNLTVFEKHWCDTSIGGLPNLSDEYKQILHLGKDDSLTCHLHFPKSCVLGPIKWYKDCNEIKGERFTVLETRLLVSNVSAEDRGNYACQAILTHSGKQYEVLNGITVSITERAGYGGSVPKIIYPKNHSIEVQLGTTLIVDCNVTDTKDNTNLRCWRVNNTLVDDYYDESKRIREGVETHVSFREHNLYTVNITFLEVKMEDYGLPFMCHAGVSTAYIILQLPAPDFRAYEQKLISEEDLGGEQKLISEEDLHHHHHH
- Assay name: SPR Biacore T200, mAb captured on anti-hFc, 25C, PBS-T pH 7.4 running buffer
// boundary case: 100 nM Human IL-36R-MMH Bound (RU) equal to 90 RU maps to class 0; strictly smaller maps to class 1

Below, 5 binders whose answers are already recorded.
Binder	Class assignment
H4H14708P2 (antibody, human IgG4 S228P, kappa, V domains shown, Fully human anti-IL-36R antibody) VH: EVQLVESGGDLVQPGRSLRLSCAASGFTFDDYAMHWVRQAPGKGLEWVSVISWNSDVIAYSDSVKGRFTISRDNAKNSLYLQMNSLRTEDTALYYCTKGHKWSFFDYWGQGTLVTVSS VL: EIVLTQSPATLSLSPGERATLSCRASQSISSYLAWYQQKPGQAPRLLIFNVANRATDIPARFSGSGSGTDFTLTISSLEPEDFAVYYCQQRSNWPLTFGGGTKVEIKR	class 1
H4H14709P (antibody, human IgG4 S228P, kappa, V domains shown, Fully human anti-IL-36R antibody) VH: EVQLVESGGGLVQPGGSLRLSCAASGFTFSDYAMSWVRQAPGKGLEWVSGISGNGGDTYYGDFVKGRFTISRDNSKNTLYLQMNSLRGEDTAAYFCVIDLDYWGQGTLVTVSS VL: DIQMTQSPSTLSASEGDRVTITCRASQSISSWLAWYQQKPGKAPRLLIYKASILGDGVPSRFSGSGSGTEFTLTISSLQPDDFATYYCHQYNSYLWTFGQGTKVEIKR	class 0
H4H14700P2 (antibody, human IgG4 S228P, kappa, V domains shown, Fully human anti-IL-36R antibody) VH: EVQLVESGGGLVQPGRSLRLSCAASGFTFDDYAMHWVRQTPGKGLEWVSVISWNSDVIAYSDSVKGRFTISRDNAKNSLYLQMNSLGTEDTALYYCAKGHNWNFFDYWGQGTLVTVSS VL: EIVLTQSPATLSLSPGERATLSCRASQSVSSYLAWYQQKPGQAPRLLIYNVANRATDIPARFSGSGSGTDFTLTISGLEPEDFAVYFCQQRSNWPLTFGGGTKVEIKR	class 0
H4H14757P (antibody, human IgG4 S228P, kappa, V domains shown, Fully human anti-IL-36R antibody) VH: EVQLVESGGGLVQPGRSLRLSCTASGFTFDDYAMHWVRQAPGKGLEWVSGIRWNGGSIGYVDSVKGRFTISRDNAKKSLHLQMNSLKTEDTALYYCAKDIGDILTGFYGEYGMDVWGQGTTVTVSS VL: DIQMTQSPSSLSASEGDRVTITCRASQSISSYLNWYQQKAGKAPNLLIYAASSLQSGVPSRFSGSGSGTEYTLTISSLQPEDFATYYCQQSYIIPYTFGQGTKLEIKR	class 0
H4H14728P (antibody, human IgG4 S228P, kappa, V domains shown, Fully human anti-IL-36R antibody) VH: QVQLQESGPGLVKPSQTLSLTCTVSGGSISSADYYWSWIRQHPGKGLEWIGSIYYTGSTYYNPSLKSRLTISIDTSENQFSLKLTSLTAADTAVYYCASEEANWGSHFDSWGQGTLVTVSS VL: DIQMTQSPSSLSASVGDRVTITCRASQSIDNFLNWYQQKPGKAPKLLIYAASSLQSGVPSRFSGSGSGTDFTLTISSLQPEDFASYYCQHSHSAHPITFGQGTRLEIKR	class 0

Next up:
Dear colleague, could you confirm whether 100 nM Human IL-36R-MMH Bound (RU) of H4H14731P (antibody, human IgG4 S228P, kappa, V domains shown, Fully human anti-IL-36R antibody) VH: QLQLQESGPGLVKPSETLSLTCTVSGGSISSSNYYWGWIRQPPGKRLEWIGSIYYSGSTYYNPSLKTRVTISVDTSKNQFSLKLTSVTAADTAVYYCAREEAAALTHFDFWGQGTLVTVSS VL: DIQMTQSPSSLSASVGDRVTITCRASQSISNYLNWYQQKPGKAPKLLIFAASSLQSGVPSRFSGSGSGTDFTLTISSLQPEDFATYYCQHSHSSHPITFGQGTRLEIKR falls below 90 RU? Thanks.
class 1
